Subject of test: Cyclic GMP-AMP synthase (Homo sapiens, UniProt Q8N884)
Sequence (Q8N884 whole entry): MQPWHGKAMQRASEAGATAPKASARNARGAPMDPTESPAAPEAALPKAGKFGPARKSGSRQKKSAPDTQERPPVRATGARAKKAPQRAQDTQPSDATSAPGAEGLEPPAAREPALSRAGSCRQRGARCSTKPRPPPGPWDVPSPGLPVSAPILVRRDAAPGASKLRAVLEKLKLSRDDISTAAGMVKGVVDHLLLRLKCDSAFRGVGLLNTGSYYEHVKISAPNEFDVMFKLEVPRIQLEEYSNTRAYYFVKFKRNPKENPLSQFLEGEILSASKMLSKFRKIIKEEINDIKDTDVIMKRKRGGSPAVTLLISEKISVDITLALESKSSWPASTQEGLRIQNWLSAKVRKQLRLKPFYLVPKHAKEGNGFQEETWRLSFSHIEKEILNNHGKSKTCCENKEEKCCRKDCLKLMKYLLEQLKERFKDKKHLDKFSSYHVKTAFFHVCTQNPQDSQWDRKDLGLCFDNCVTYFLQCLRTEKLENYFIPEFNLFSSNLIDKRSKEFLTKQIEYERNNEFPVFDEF
Assay name: Inhibition of CGAS in human THP1 cells transfected with mock Sendai virus and measured after 16 hrs by Gaussia luciferase reporter gene assay
Type: cell-based
pIC50: −log10 of the molar value.
Observable: pIC50

Here are 4 molecules together with their reported answers.
INSERT INTO assay_data (molecule, subject_of_test, observable, data_value) VALUES
  ('CN1C(=O)S/C(=C\c2cc(OCc3cnc([S+](C)[O-])nc3)c(O)cc2Br)C1=O (stereo not given)', 'Cyclic GMP-AMP synthase (Homo sapiens, UniProt Q8N884)', 'pIC50', '≤ 5.00'),
  ('COCCNc1ncc(COc2cc(/C=C3\Sc4ncccc4C3=O)c(Br)cc2O)cn1', 'Cyclic GMP-AMP synthase (Homo sapiens, UniProt Q8N884)', 'pIC50', '≤ 5.00'),
  ('CN1C(=O)S/C(=C\c2cc(OCc3cncnc3N)c(O)cc2Br)C1=O', 'Cyclic GMP-AMP synthase (Homo sapiens, UniProt Q8N884)', 'pIC50', '≤ 5.00'),
  ('CN1C(=O)S/C(=C\c2cc(OCc3cnc(NCc4ccccn4)nc3)c(O)cc2Br)C1=O', 'Cyclic GMP-AMP synthase (Homo sapiens, UniProt Q8N884)', 'pIC50', '≤ 5.00');

Moving on to the next molecule.
For CC1C(=O)S/C(=C\c2cc(OC(C)c3cnc(Cl)nc3)c(O)c(F)c2Br)C1=O (stereo not given) , write its pIC50.
5.00 to 5.60

* * *

Subject of test: Cyclic GMP-AMP synthase (Homo sapiens)
Assay name: Inhibition of recombinant His6-SUMO tagged human CGAS expressed in Escherichia coli BL21/pLys cells incubated for 20 mins by Kinase Glo chemiluminescence assay
IC50 overview

Here are 2 compounds together with their reported answers.
INSERT INTO results (smiles_notation, observable, data_value) VALUES
  ('COc1cc(/C=C2\SC(=O)N(C)C2=O)c(Br)c(Cl)c1O', 'IC50', '≥ 10 µM'),
  ('COc1cc(/C=C2\SC(=O)N(C)C2=O)c(C)cc1O', 'IC50', '0.5 to 10 µM');

Moving on to the next compound.
For `COc1cc(/C=C2\SC(=O)N(C)C2=O)c(C(F)(F)F)cc1O` , write its IC50.
≥ 10 µM

* * *

Subject of test: Cyclic GMP-AMP synthase (Homo sapiens, UniProt Q8N884)
Assay name: Inhibition of recombinant His6-SUMO tagged human CGAS expressed in Escherichia coli BL21/pLys cells incubated for 20 mins by Kinase Glo chemiluminescence assay
pIC50: −log10 of the molar value.
Observable: pIC50

Here are 3 molecules together with their reported answers.
INSERT INTO results (molecule, data_value) VALUES
  ('CN1C(=O)S/C(=C\c2cc(Oc3ccncc3)c(O)cc2Br)C1=O', '≤ 5.00'),
  ('COc1ncc(COc2cc(/C=C3\SC(=O)N(C)C3=O)c(Br)cc2O)cn1', '5.00 to 6.30'),
  ('CC(Oc1cc(/C=C2\SC(=O)N(C)C2=O)c(Br)cc1O)c1cnc(N)nc1 (centres undefined)', '≥ 6.30');

Moving on to the next molecule.
For `COc1cc(/C=C2\Sc3ncccc3C2=O)c(Br)cc1Oc1cnc(N)s1` , write its pIC50.
≤ 5.00
